Where do the numbers come from? From paper PMC12030706.

- Experiment description: Ex vivo biodistribution in PC-3 tumor-bearing mice
- Run parameters: mouse, large intestine, 100 ug, Uptake in large intestine, 1 h blocked (co-injected with 100 µg [D-Phe6,Leu-NHEt13,des-Met14]Bombesin(6-14))
Numbered stars: 1 amine (or outer) side, 2 acyl side, 3 side chain; on linkers, the order of the positions; unused ones are H or OH. Square brackets hold non-standard residues; d marks the D form. Peptide text beside a SMILES is read from it. * marks the point of attachment. DOTA = O=C(O)CN1CCN(CC(=O)O)CCN(CC(=O)*)CCN(CC(=O)O)CC1; NMeH = CN[C@@H](Cc1c[nH]cn1)C(=O)O; X1 = O=C(CN1CCC(N[*:1])CC1)[*:2]; Tle = CC(C)(C)[C@H](N)C(=O)O; Thz = O=C(O)[C@@H]1CSCN1
Measured tissue uptake at 1 h, listed per entry for reference.
Reported property: tissue uptake at 1 h (%ID/g)

# Molecule, Reported property, Numeric value
measured = [
    ("CC(C)C[C@H](NC(=O)[C@H](Cc1cnc[nH]1)N(C)C(=O)CNC(=O)[C@@H](NC(=O)[C@H](C)NC(=O)[C@H](Cc1c[nH]c2ccccc12)NC(=O)[C@H](Cc1c[nH]cn1)NC(=O)[C@@H](Cc1ccccc1)NC(=O)CN1CCC(NC(=O)CN2CCN(CC(=O)O)CCN(CC(=O)O)CCN(CC(=O)O)CC2)CC1)C(C)(C)C)C(=O)N1CSC[C@H]1C(N)=O [[^177Lu]Lu-LW01142, metal not drawn] ({DOTA}-[X1][dF]HWA[Tle]G[NMeH]L[Thz]-NH2)", "tissue uptake at 1 h", 0.31),
    ("CC(C)C[C@@H](CN1CSC[C@H]1C(N)=O)NC(=O)[C@H](Cc1cnc[nH]1)NC(=O)CN(C)C(=O)[C@@H](NC(=O)[C@H](C)NC(=O)[C@H](Cc1c[nH]c2ccccc12)NC(=O)[C@H](CCC(N)=O)NC(=O)[C@@H](Cc1ccccc1)NC(=O)CN1CCC(NC(=O)CN2CCN(CC(=O)O)CCN(CC(=O)O)CCN(CC(=O)O)CC2)CC1)C(C)C [[^177Lu]Lu-TacsBOMB5, metal not drawn]", "tissue uptake at 1 h", 0.13),
]

====

Reported tissue to tissue ratio at 1 h by item:
- Experiment description: Ex vivo biodistribution in PC-3 tumor-bearing mice
- Run parameters: male, NOD.Cg-Rag1^tm1Mom Il2rg^tm1Wjl/SzJ (NRG), mouse, tumor/muscle, total radioactivity, Tumor/muscle uptake ratio, 1 h post-injection
Numbered stars: 1 amine (or outer) side, 2 acyl side, 3 side chain; on linkers, the order of the positions; unused ones are H or OH. Square brackets hold non-standard residues; d marks the D form. Peptide text beside a SMILES is read from it. * marks the point of attachment. DOTA = O=C(O)CN1CCN(CC(=O)O)CCN(CC(=O)*)CCN(CC(=O)O)CC1; NMeH = CN[C@@H](Cc1c[nH]cn1)C(=O)O; X1 = O=C(CN1CCC(N[*:1])CC1)[*:2]; Tle = CC(C)(C)[C@H](N)C(=O)O; Thz = O=C(O)[C@@H]1CSCN1

# Molecule, tissue to tissue ratio at 1 h
rows = [
    ("CC(C)C[C@H](NC(=O)[C@H](Cc1cnc[nH]1)N(C)C(=O)CNC(=O)[C@@H](NC(=O)[C@H](C)NC(=O)[C@H](Cc1c[nH]c2ccccc12)NC(=O)[C@H](CCC(N)=O)NC(=O)[C@@H](Cc1ccccc1)NC(=O)CN1CCC(NC(=O)CN2CCN(CC(=O)O)CCN(CC(=O)O)CCN(CC(=O)O)CC2)CC1)C(C)(C)C)C(=O)N1CSC[C@H]1C(N)=O [[^177Lu]Lu-LW01110, metal not drawn]", 76.2),
    ("CC(C)C[C@H](NC(=O)[C@H](Cc1cnc[nH]1)N(C)C(=O)CNC(=O)[C@@H](NC(=O)[C@H](C)NC(=O)[C@H](Cc1c[nH]c2ccccc12)NC(=O)[C@H](Cc1c[nH]cn1)NC(=O)[C@@H](Cc1ccccc1)NC(=O)CN1CCC(NC(=O)CN2CCN(CC(=O)O)CCN(CC(=O)O)CCN(CC(=O)O)CC2)CC1)C(C)(C)C)C(=O)N1CSC[C@H]1C(N)=O [[^177Lu]Lu-LW01142, metal not drawn] ({DOTA}-[X1][dF]HWA[Tle]G[NMeH]L[Thz]-NH2)", 60.1),
]

====

- Experiment description: Ex vivo biodistribution in PC-3 tumor-bearing mice
- Run parameters: mouse, lungs, 100 ug, Uptake in lungs, 1 h blocked (co-injected with 100 µg [D-Phe6,Leu-NHEt13,des-Met14]Bombesin(6-14))

# Molecule, tissue uptake at 1 h (%ID/g)
records = [
    ("CC(C)C[C@@H](CN1CSC[C@H]1C(N)=O)NC(=O)[C@H](Cc1cnc[nH]1)NC(=O)CN(C)C(=O)[C@@H](NC(=O)[C@H](C)NC(=O)[C@H](Cc1c[nH]c2ccccc12)NC(=O)[C@H](CCC(N)=O)NC(=O)[C@@H](Cc1ccccc1)NC(=O)CN1CCC(NC(=O)CN2CCN(CC(=O)O)CCN(CC(=O)O)CCN(CC(=O)O)CC2)CC1)C(C)C [[^177Lu]Lu-TacsBOMB5, metal not drawn]", 0.37),
]

====

- Experiment description: Ex vivo biodistribution in PC-3 tumor-bearing mice
- Run parameters: mouse, testes, Uptake in testes, 4 h post-injection
Numbered stars: 1 amine (or outer) side, 2 acyl side, 3 side chain; on linkers, the order of the positions; unused ones are H or OH. Square brackets hold non-standard residues; d marks the D form. Peptide text beside a SMILES is read from it. * marks the point of attachment. DOTA = O=C(O)CN1CCN(CC(=O)O)CCN(CC(=O)*)CCN(CC(=O)O)CC1; NMeH = CN[C@@H](Cc1c[nH]cn1)C(=O)O; X1 = O=C(CN1CCC(N[*:1])CC1)[*:2]; Tle = CC(C)(C)[C@H](N)C(=O)O; Thz = O=C(O)[C@@H]1CSCN1
Reported property: tissue uptake at 4 h (%ID/g)

# Compound, Numeric value
data = [
    ("CC(C)C[C@H](NC(=O)[C@H](Cc1cnc[nH]1)N(C)C(=O)CNC(=O)[C@@H](NC(=O)[C@H](C)NC(=O)[C@H](Cc1c[nH]c2ccccc12)NC(=O)[C@H](Cc1c[nH]cn1)NC(=O)[C@@H](Cc1ccccc1)NC(=O)CN1CCC(NC(=O)CN2CCN(CC(=O)O)CCN(CC(=O)O)CCN(CC(=O)O)CC2)CC1)C(C)(C)C)C(=O)N1CSC[C@H]1C(N)=O [[^177Lu]Lu-LW01142, metal not drawn] ({DOTA}-[X1][dF]HWA[Tle]G[NMeH]L[Thz]-NH2)", 0.05),
]

====

- Experiment description: Ex vivo biodistribution in PC-3 tumor-bearing mice
- Run parameters: mouse, fat, Uptake in fat, 24 h post-injection
Numbered stars: 1 amine (or outer) side, 2 acyl side, 3 side chain; on linkers, the order of the positions; unused ones are H or OH. Square brackets hold non-standard residues; d marks the D form. Peptide text beside a SMILES is read from it. * marks the point of attachment. DOTA = O=C(O)CN1CCN(CC(=O)O)CCN(CC(=O)*)CCN(CC(=O)O)CC1; NMeH = CN[C@@H](Cc1c[nH]cn1)C(=O)O; X1 = O=C(CN1CCC(N[*:1])CC1)[*:2]; Tle = CC(C)(C)[C@H](N)C(=O)O; Thz = O=C(O)[C@@H]1CSCN1

# Compound, tissue uptake at 24 h (%ID/g)
records = [
    ("CC(C)C[C@H](NC(=O)[C@H](Cc1cnc[nH]1)N(C)C(=O)CNC(=O)[C@@H](NC(=O)[C@H](C)NC(=O)[C@H](Cc1c[nH]c2ccccc12)NC(=O)[C@H](Cc1c[nH]cn1)NC(=O)[C@@H](Cc1ccccc1)NC(=O)CN1CCC(NC(=O)CN2CCN(CC(=O)O)CCN(CC(=O)O)CCN(CC(=O)O)CC2)CC1)C(C)(C)C)C(=O)N1CSC[C@H]1C(N)=O [[^177Lu]Lu-LW01142, metal not drawn] ({DOTA}-[X1][dF]HWA[Tle]G[NMeH]L[Thz]-NH2)", 0.01),
    ("CC(C)C[C@H](NC(=O)[C@H](Cc1cnc[nH]1)N(C)C(=O)CNC(=O)[C@@H](NC(=O)[C@H](C)NC(=O)[C@H](Cc1c[nH]c2ccccc12)NC(=O)[C@H](CCC(N)=O)NC(=O)[C@@H](Cc1ccccc1)NC(=O)CN1CCC(NC(=O)CN2CCN(CC(=O)O)CCN(CC(=O)O)CCN(CC(=O)O)CC2)CC1)C(C)(C)C)C(=O)N1CSC[C@H]1C(N)=O [[^177Lu]Lu-LW01110, metal not drawn]", 0.01),
]

====

- Experiment description: Ex vivo biodistribution in PC-3 tumor-bearing mice
- Run parameters: mouse, pancreas, Uptake in pancreas, 4 h post-injection
Numbered stars: 1 amine (or outer) side, 2 acyl side, 3 side chain; on linkers, the order of the positions; unused ones are H or OH. Square brackets hold non-standard residues; d marks the D form. Peptide text beside a SMILES is read from it. * marks the point of attachment. DOTA = O=C(O)CN1CCN(CC(=O)O)CCN(CC(=O)*)CCN(CC(=O)O)CC1; NMeH = CN[C@@H](Cc1c[nH]cn1)C(=O)O; X1 = O=C(CN1CCC(N[*:1])CC1)[*:2]; Tle = CC(C)(C)[C@H](N)C(=O)O; Thz = O=C(O)[C@@H]1CSCN1
// tissue uptake at 4 h lookup, one value per entry
Reported property: tissue uptake at 4 h (%ID/g)

# Compound, Reported property, Result unit, Numeric value
rows = [
    ("CC(C)C[C@H](NC(=O)[C@H](Cc1cnc[nH]1)N(C)C(=O)CNC(=O)[C@@H](NC(=O)[C@H](C)NC(=O)[C@H](Cc1c[nH]c2ccccc12)NC(=O)[C@H](CCC(N)=O)NC(=O)[C@@H](Cc1ccccc1)NC(=O)CN1CCC(NC(=O)CN2CCN(CC(=O)O)CCN(CC(=O)O)CCN(CC(=O)O)CC2)CC1)C(C)(C)C)C(=O)N1CSC[C@H]1C(N)=O [[^177Lu]Lu-LW01110, metal not drawn]", "tissue uptake at 4 h", "%ID/g", 4.91),
    ("CC(C)C[C@H](NC(=O)[C@H](Cc1cnc[nH]1)N(C)C(=O)CNC(=O)[C@@H](NC(=O)[C@H](C)NC(=O)[C@H](Cc1c[nH]c2ccccc12)NC(=O)[C@H](Cc1c[nH]cn1)NC(=O)[C@@H](Cc1ccccc1)NC(=O)CN1CCC(NC(=O)CN2CCN(CC(=O)O)CCN(CC(=O)O)CCN(CC(=O)O)CC2)CC1)C(C)(C)C)C(=O)N1CSC[C@H]1C(N)=O [[^177Lu]Lu-LW01142, metal not drawn] ({DOTA}-[X1][dF]HWA[Tle]G[NMeH]L[Thz]-NH2)", "tissue uptake at 4 h", "%ID/g", 1.57),
    ("CC(C)C[C@@H](CN1CSC[C@H]1C(N)=O)NC(=O)[C@H](Cc1cnc[nH]1)NC(=O)CN(C)C(=O)[C@@H](NC(=O)[C@H](C)NC(=O)[C@H](Cc1c[nH]c2ccccc12)NC(=O)[C@H](CCC(N)=O)NC(=O)[C@@H](Cc1ccccc1)NC(=O)CN1CCC(NC(=O)CN2CCN(CC(=O)O)CCN(CC(=O)O)CCN(CC(=O)O)CC2)CC1)C(C)C [[^177Lu]Lu-TacsBOMB5, metal not drawn]", "tissue uptake at 4 h", "%ID/g", 0.21),
]
